System: UO-31 renal
Test: NCI tumour cell line growth inhibition, 48 h

molecule	assay target	TGI
O=C1C=C(Nc2ccccc2C(=O)c2ccccc2)c2ccccc2C1=O	UO-31 renal	> 100 µM
Cn1cc(C2=C(c3cn(C)c4ccc(OCc5ccccc5)cc34)C(=O)NC2=O)c2ccccc21	UO-31 renal	> 25 µM
COc1ccc(/C(COc2ccc3c(c2)oc(=O)c2cc(OC)ccc23)=N/O)cc1	UO-31 renal	> 100 µM
CCCCc1[nH]ccc2c(C)c3nc4ccccc4c3cc12	UO-31 renal	10.9 µM
C[C@]12CC[C@@H]3c4ccc(O)cc4CC[C@H]3[C@@H]1CC[C@@H]2NS(=O)(=O)c1cccc(OC(F)(F)F)c1	UO-31 renal	5.46 µM
O=c1ccn(C2OC(CN(O)CCC3C(O)C(CO)OC3n3ccc(=O)[nH]c3=O)C(O)C2O)c(=O)[nH]1 (stereo not drawn)	UO-31 renal	> 100 µM
COc1cc(C(=O)/C=C/c2c(C)n([O-])c3ccc(C(F)(F)F)cc3[n+]2=O)cc(OC)c1OC	UO-31 renal	3.51 µM
COc1ccc(/C=C2/SC(c3ccccc3)N(NC(=O)CCCCCCCCC(=O)NN3C(=O)/C(=C\c4ccc(OC)c(OC)c4)SC3c3ccccc3)C2=O)cc1OC (stereo not drawn)	UO-31 renal	> 100 µM

====

Tested on: SW-620 colon
Test: NCI tumour cell line growth inhibition, 48 h
Where a SMILES comes first, the peptide text is derived from it. Bridges are numbered along the chain shown (N, C = ends). [ ]: non-standard residue; d: D form. The star is where a group is joined. Cya = N[CH](CS(=O)(=O)O)C(=O)O; X49 = CC(C)CCCCCCCC(O)CC(=O)*; GABA = NCCCC(=O)O
The entries below come with measured TGI values attached.
assay endpoint: TGI

compound	assay target	result value
C[Si](C)(C)/N=C1\N2C(=NC1(C(F)(F)F)C(F)(F)F)Sc1ccccc12	SW-620 colon	> 50 µM
O=C(CSCC(=O)N/N=C\c1cc(Cl)cc(Cl)c1O)N/N=C\c1cc(Cl)cc(Cl)c1O	SW-620 colon	16.2 µM
CNC(=O)CNC(=O)CCC(=O)OC	SW-620 colon	> 100 µM
CC(C1CCCC1=O)C1CCCC1=O (configuration not stated)	SW-620 colon	> 100 µM
COC(=O)/C(=C(\C)NC(C)=O)c1c(C(=O)OC)[nH]c2ccccc12	SW-620 colon	> 100 µM
CCSc1nc2[nH]c(=S)[nH]c(=S)c2c(-c2ccc(OC)c(OC)c2)c1C#N	SW-620 colon	> 50 µM
CC(C)C(O)(C(=O)OCN1C(=O)C2C3C=CC(C2C1=O)C1C2C(=O)N(COC(=O)C(O)(C(C)C)C(C)O)C(=O)C2C31)C(C)O (configuration not stated)	SW-620 colon	> 100 µM
CC1=NN(C2=NS(=O)(=O)c3ccccc3N2C)C(=O)C1	SW-620 colon	> 100 µM
C[C@]12CCC3[C@@H](CC[C@@H]4c5nonc5CC[C@]34C)C1CCC2=O (some centres not stated)	SW-620 colon	> 100 µM
CCCCC1C=Cn2c(=O)oc3c(OC(C)C)c(OC(C)C)c(O)c1c32 (configuration not stated)	SW-620 colon	27.2 µM
COc1ccc(/C=C/C(=O)c2ccc(NC(=O)CSc3nnc(-c4ccc(OC)c(OC)c4)n3-c3ccccc3)cc2)cc1	SW-620 colon	4.07 µM
O=C(O)c1ccc(C=C2Sc3ccccc3S2)cc1	SW-620 colon	> 100 µM
COc1ccc(C(O)c2cc3c(N)c(C(=O)Nc4ccc(Br)cc4)sc3nc2C)cc1 (configuration not stated)	SW-620 colon	25.9 µM
COC(=O)c1c(O)ccc2c1c1c(n2CCc2ccccc2)C(=O)c2ccccc2C1=O	SW-620 colon	30.3 µM
Cn1cnc2[nH]c(=O)[nH]c(=S)c21	SW-620 colon	> 100 µM
O=C(/C=C/c1cccc(O)c1)c1cccc(-n2cc(-c3ccc(Cl)cc3)[nH]c2=O)c1	SW-620 colon	4.74 µM
CC(C)(C)OCC1NC(=O)[C@@H]2Cc3c([nH]c4ccccc34)C(C3CCCCC3)N2C1=O (some centres not stated)	SW-620 colon	85.5 µM
C=C1C(=O)[C@@]23CC[C@@H]4[C@@]5(C)CCC[C@@]4(OC5=O)C2(C)CC[C@]1(OC)C3 (some centres not stated)	SW-620 colon	3.23 µM
COc1cccc2c(Nc3ccc(C(=O)O)cc3)cc(-c3ccccc3)nc12	SW-620 colon	> 100 µM
O=C1Cc2ccccc2N1/N=C\c1ccc([N+](=O)[O-])cc1	SW-620 colon	> 100 µM
CC(=O)OC1(C)C(=O)OC/C2=C/CN(C)CCC(OC(=O)C(O)(C(C)Cl)CC1C)C2=O (configuration not stated)	SW-620 colon	> 100 µM
CC(C)CCCCCCCC(O)CC(=O)NC(CS(=O)(=O)O)C(=O)NC(CC(C)C)C(=O)NCCCC(=O)NC(Cc1cnc[nH]1)C(=O)NC(C)C(=O)NC1C(=O)NC(C(C)O)C(=O)NC(Cc2cnc[nH]2)C(=O)NC(C)C(=O)NC(C(C)O)C(=O)OC1C (configuration not stated) (X49-[Cya]L[GABA]HATTHAT; ester 6-C; configuration not given here)	SW-620 colon	> 25 µM
CCCCCC(=O)n1[nH]c(=O)n(-c2ccc(OC)cc2)c1=O	SW-620 colon	> 100 µM
Cc1ccc(/C=C2\CN(C)CC3=C2NC(=S)NC3c2ccc(C)cc2)cc1 (configuration not stated)	SW-620 colon	> 100 µM
CCCc1n(Cc2ccc3ccccc3c2)c2ccccc2[n+]1Cc1ccc2ccccc2c1	SW-620 colon	1.7 µM
CC(=O)OC1COC(n2c3ccccc3c3ccc4c5ccccc5[nH]c4c32)C(OC(C)=O)C1OC(C)=O (configuration not stated)	SW-620 colon	> 100 µM
COc1cc(C(C)c2cc3c(cc2OCCN)OCO3)cc(OC)c1OC (configuration not stated)	SW-620 colon	> 100 µM
Clc1ccc(-c2ccc(CNCC3CCNCC3)o2)c(-c2ccccc2)c1	SW-620 colon	2.96 µM
CN(C)c1nc(N(C)C)sc(=O)n1	SW-620 colon	> 100 µM
CC(C)OC(=O)Nc1ccc(-c2nc(-c3cccc(OCCN4CCOCC4)c3)c(-c3ccnc(Br)c3)[nH]2)cc1	SW-620 colon	> 100 µM
Cc1cc(C)nc(NS(=O)(=O)c2ccc(NNc3c4ccccc4nc4c(C(=O)Nc5ccc(S(=O)(=O)N=C(N)N)cc5)cccc34)cc2)n1	SW-620 colon	> 100 µM
COc1ccc2c(c1)SC1=NNC(Cl)C(=O)N12 (configuration not stated)	SW-620 colon	65.7 µM
CCCCCCC[CH2][Sn]([Cl])([Cl])[CH2]CCCCCCC	SW-620 colon	19.3 µM
CCCCSC(=CC(=O)c1cccc(C(=O)C=C(SCCCC)SCCCC)n1)SCCCC	SW-620 colon	> 100 µM
O=C(CC(=O)Nc1ccc(C(=O)O)cc1)Nc1ccc(C(=O)O)cc1	SW-620 colon	> 100 µM
COc1cc(-c2ccc(N=Nc3c(S(=O)(=O)O)cc4cc(S(=O)(=O)O)cc(N)c4c3O)c(OC)c2)ccc1N=Nc1c(S(=O)(=O)O)cc2cc(S(=O)(=O)O)cc(N)c2c1O	SW-620 colon	> 100 µM
COc1ccc(-n2sc3ncc(C)cc3c2=O)cc1	SW-620 colon	89.6 µM
